Tested on: ERK2
Assay: ELISA assay for detection of MAP kinase binding to biotinylated peptide
Conditions: result in words
Measured Attribute: binding to ERK2

What measured binding to ERK2 goes with `RARAKNPLYK` ?
still bound by ERK2

What measured binding to ERK2 goes with `RSKAKWQTGTNPLYR` ?
bind

What measured binding to ERK2 goes with `RSRARNPLYR` ?
still bound by ERK2
